Tested on: HT-29
Test method notes: NCI tumour cell line growth inhibition, 48 h
The source made the active and inactive calls. No stated cut-off is given here; in the data, active = GI50 up to about 1.1 µM and inactive = higher.
Reported metric: GI50

Given the entry O=S1(=O)c2ccccc2NC(=S)CC1c1ccccc1 (configuration not stated) , report its measured GI50.
> 100 µM (inactive)

What value of GI50 has been reported for the following compound? CCCCN(C)CC(C(C)=O)C(c1ccccc1)c1c(O)c2ccccc2oc1=O (configuration not stated)
> 100 µM (inactive)

Report GI50 for "Nc1ccc2c(c1)C(=O)c1c(F)cccc1-2" please.
27.7 µM (inactive)

Quick one: GI50 for CC#CC#C/C=C1/C=CC2(CCCCO2)O1 (configuration not stated) ?
> 100 µM (inactive)

// returns reported GI50 for input C[C@]12CC[C@H](O)CC1=CC[C@@H]1C2CC[C@]2(C)c3n[nH]nc3CC12 (some centres not stated)
> 100 µM (inactive)

Consider the compound shown here: "O=C1c2ccccc2-c2c1c1ccccc1c(=O)n2Cc1ccccc1" What is its recorded GI50?
> 100 µM (inactive)

What value of GI50 has been recorded for this entry: "Brc1cccc(/C=C/CN2CCN(CCOC(c3ccccc3)c3ccccc3)CC2)c1"
6.22 µM (inactive)

* * *

Could you please report measured GI50 for the items listed next?
Test system: SK-OV-3
Test method notes: NCI tumour cell line growth inhibition, 48 h
The source made the active and inactive calls. Rule as the data show it: active = GI50 up to about 1.1 µM and inactive = higher.

I am curious: what GI50 value has been reported for "Cn1c(=S)sc2nc3ccccc3n2c1=S" ?
10.4 µM (inactive)

Return reported GI50; argument: "CCOC(=O)c1sc2nc(SC)nc3c2c1N=CN3c1ccccc1Cl"
31.4 µM (inactive)

Query: GI50; subject: CC(=O)OC1=C2CC[C@@H]3C(CC[C@@]4(C)C3CC[C@@H]4OC(C)=O)[C@@]2(C)CC(C#N)C1=O (stereo partly drawn)
18.3 µM (inactive)

* * *

Test system: SK-MEL-5
Test method notes: NCI tumour cell line growth inhibition, 48 h
Counter-ions that a name gives are not always drawn. Active and inactive are the calls of the source. Rule as the data show it: active = GI50 up to about 1.1 µM and inactive = higher.
Please provide measured GI50 for the entries that follow.

Which GI50 value is on record for "CCc1cc(Cc2cc(CC)c(NC(=O)C(=O)Cc3ccccn3)c(CC)c2Cl)c(Cl)c(CC)c1NC(=O)C(=O)Cc1ccccn1" ?
> 100 µM (inactive)

Bench note: what GI50 did NC(Cc1c[nH]c2ccc([N+](=O)[O-])cc12)C(=O)O (centres undefined) show?
> 100 µM (inactive)

Any idea what GI50 was measured for "O=C(O)/C(Cc1ccc([N+](=O)[O-])cc1)=N\O" ?
> 100 µM (inactive)

Which GI50 value is on record for Cn1c(=O)c2c(nc3n(CC(O)CCl)c(=O)ccn23)n(C)c1=O (centres undefined) ?
62.5 µM (inactive)

# query: GI50 of entry "COCCOCc1nc(C#N)c(N)o1"
> 100 µM (inactive)

What value of measured GI50 is listed for "O=C(NCCc1ccccc1)c1cc(/C=C/c2cc(O)ccc2O)ccc1O" ?
2.74 µM (inactive)

Endpoint output: GI50 of "C[C@H]1[C@H](C)CC[C@]2(C)CC[C@]3(C)C(=C[C@@H](O)[C@@H]4[C@@]5(C)[C@H](O)[C@@H](O)[C@H](O)C(C)(C)[C@@H]5CC[C@]43C)[C@H]12" . Value?
> 100 µM (inactive)

Fill in the blank: the reported GI50 of CCOC(=O)/C=C1\Nc2ccccc2C12CCc1c([nH]c3ccccc13)C2C(=O)OCC (centres undefined) is ____.
21.8 µM (inactive)

Fill blank: measured GI50 of the molecule NC(CCC(=O)Nc1ccc(O)cc1)C(=O)O (centres undefined) is ____.
> 100 µM (inactive)

Any idea what its GI50 is? The molecule is "Cn1c(=O)nc2n(-c3cc(C(F)(F)F)cc(C(F)(F)F)c3)c3ccccc3nc-2c1=O"
8.18 µM (inactive)

Dear colleague, I am looking for the recorded GI50 of the following molecule: "CC1(C)C(=O)/C(=C/c2ccccc2)C(C)(C)C1(C)C"
55 µM (inactive)

Consider the molecule "O=C(O)c1nc(-c2ccccn2)c(-c2ccccn2)nc1C(=O)O" and give its measured GI50.
1.28 µM (inactive)

For the molecule shown here, "CS(=O)(=O)OCCCSCCSCCCOS(C)(=O)=O" , give the reported GI50.
> 100 µM (inactive)

// GI50 lookup, key: "CC(C)(C)c1ccc2c(c1)OP1(Oc3cccc4cccnc34)(O2)Oc2ccc(C(C)(C)C)cc2O1"
3.27 µM (inactive)

Given the entry "O=C1c2c(nc3ccccc3c2-c2ccccc2)CN1Nc1ccccc1" , report its measured GI50.
> 100 µM (inactive)

What does the data say about its GI50? Entry: "C[C@@H](NC(=O)[C@@H]1C[C@]1(C)COC(=O)c1cc([N+](=O)[O-])cc([N+](=O)[O-])c1)c1cccc2ccccc12"
> 100 µM (inactive)

Record request: GI50 value, item CCOC(=O)C1C(c2ccc3c(c2)OCO3)c2c(n[nH]c2O)CC1(C)O (centres undefined)
> 100 µM (inactive)

Need GI50 of "C1CSCC2(COC2)CSCCSCC2(COC2)CS1" , thanks.
> 100 µM (inactive)

Quick one: GI50 for "CC(=O)/C=c1\[nH]/c(=C\C=C\c2ccccc2)c(=O)n1/C=C1\C(=O)Oc2ccccc2C1=O" ?
> 100 µM (inactive)

Can you share its GI50? I mean this molecule: "CC(=O)O[C@@]12[C@@H]3O[C@@]4(O)C[C@]5(C)[C@H]6C[C@@](C(C)C)(O[C@H]5c5ccoc5)O[C@H]1[C@]6(C4)O[C@]2(O)C(C)=CC3(C)C"
> 100 µM (inactive)

Consider the molecule CN1[C@@H]2CC[C@H]1C[C@@H](OC(c1ccccc1)c1ccccc1)C2 [BENZTROPINE MESYLATE] and give its measured GI50.
15.6 µM (inactive)

Entry "CC(=O)c1c(C)cn(S(=O)(=O)NC(=O)Nc2nncs2)c1C" : reported GI50 = ?
> 100 µM (inactive)

Please give the measured GI50 for this molecule: "CN(C)CN(C)c1nc(N(C)C)nc(N(C)CN(C)C)n1"
51.1 µM (inactive)

Reported GI50 for "Cc1ccc2ccccc2c1CC1S(=O)(=O)OCCOS1(=O)=O" : what is it?
12.8 µM (inactive)

Given "O=c1[nH]nc(Cc2ccccc2)n1/N=C/c1c[nH]c2ccccc12" , state its recorded GI50.
> 100 µM (inactive)

Value lookup for GI50; key = C[C@]12CCC3[C@@H](C[C@H]4OC(=O)[C@@]35CCC(=O)C=C45)C1CCC2=O (some centres undefined)
> 100 µM (inactive)

Given the molecule "c1ccc2c(-c3ccnc(-c4c[nH]c5ccccc45)n3)c[nH]c2c1" , what is its reported GI50?
3.27 µM (inactive)

I would be grateful if you could share the reported GI50 for "C=C(C)C1(Sc2ccc(OC)cc2)CC1" .
14.6 µM (inactive)

Which GI50 is reported for this molecule? "CCOCc1cc(=O)c2cc3c(cc2o1)OC(C)(C)CC3"
56.6 µM (inactive)

* * *

Exercise: state measured GI50 for each of the compounds provided.
Test system: LOX IMVI
Test method notes: NCI tumour cell line growth inhibition, 48 h
Active and inactive are the calls of the source. No stated cut-off is given here; in the data, active = GI50 up to about 1.1 µM and inactive = higher.

Recorded GI50 of "CCc1nnc(S)n1/N=C\c1ccc(-c2ccccc2[N+](=O)[O-])o1" , please.
28 µM (inactive)

Any idea what GI50 was measured for CCOC(=O)/C=C1\Nc2ccccc2C12CCc1c([nH]c3ccccc13)C2C(=O)OCC (centres undefined) ?
39.2 µM (inactive)

Quick one: GI50 for O=C1C(C(O)(C(F)(F)Cl)C(F)(F)Cl)CCC1C(O)(C(F)(F)Cl)C(F)(F)Cl (centres undefined) ?
3.94 µM (inactive)

I am curious: what GI50 value has been reported for "Cc1cc2nc3[nH]c4c(Cl)cc(Cl)cc4c3nc2cc1C" ?
> 100 µM (inactive)

* * *

Record form. Attribute: GI50. Fill in for each entry.
Tested on: SF-268
Test method notes: NCI tumour cell line growth inhibition, 48 h
Activity calls are given as the source filed them. Rule as the data show it: active = GI50 up to about 1.1 µM and inactive = higher.

Consider the compound shown here: CC1=CC(=O)CC(C)(C)C1/C=C/C(C)=C/C=C/C(C)=C/C=C/C=C(C)/C=C/C=C(C)/C=C/C1C(C)=CC(=O)CC1(C)C (stereo not given) What is its recorded GI50?
44.4 µM (inactive)

Can you share its GI50? I mean this compound: COC(=O)CN(CC1O[C@@H]2OC(C)(C)O[C@@H]2C1N=[N+]=[N-])C(=O)OCc1ccccc1 (stereo not given in full)
> 100 µM (inactive)

Data request, read-out GI50, for NC(CCC(=O)Nc1ccc(O)cc1)C(=O)O (stereo not given)
> 100 µM (inactive)

What value of measured GI50 is listed for Cc1ccc2c(c1C)CC1(Cc3ccc(C)c(C)c3C1=O)C2=O (stereo not given) ?
> 100 µM (inactive)

Name the recorded GI50 for "CCc1cc(Cc2cc(CC)c(NC(=O)C(=O)Cc3ccccn3)c(CC)c2Cl)c(Cl)c(CC)c1NC(=O)C(=O)Cc1ccccn1" .
> 100 µM (inactive)
